assayedTarget: B1R receptor of the rat (bradykinin 1 receptor) (Rattus norvegicus, UniProt P97583)
Construct: host or cells: CHO K1 cells (rB1R cells)
Sequence (P97583 1-337): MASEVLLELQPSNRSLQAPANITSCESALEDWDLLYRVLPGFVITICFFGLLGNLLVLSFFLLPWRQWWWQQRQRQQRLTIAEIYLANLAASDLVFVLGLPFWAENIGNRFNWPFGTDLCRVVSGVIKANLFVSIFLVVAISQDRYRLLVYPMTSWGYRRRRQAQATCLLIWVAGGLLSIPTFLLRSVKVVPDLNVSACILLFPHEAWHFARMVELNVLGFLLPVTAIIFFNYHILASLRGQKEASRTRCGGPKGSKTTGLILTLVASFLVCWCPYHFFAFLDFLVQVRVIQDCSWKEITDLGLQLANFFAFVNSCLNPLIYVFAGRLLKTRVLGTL
protocolDescription: FLIPR Ca2+ assay (Fluo-4) on CHO K1 cells stably transfected with the B1R gene of the rat; % activation and % inhibition at 10 μM
Type: cell-based
conditionSet: CHO-K1, test substance 10 μM; CHO K1 rB1R cells; Ca2+ inflow after 100 nM Des-Arg9-bradykinin; read-out: B1R antagonism, rat [10 μM] % inhibition
recordedEndpoint: inhibition at 10 µM (%)
Answers are plain numbers, in %.

Some compounds with known inhibition at 10 µM results, for comparison:
{"compound": "COc1cc(C)c(S(=O)(=O)N(C)CCOCCC(=O)N2CCC(O)(c3cccnc3)CC2)c(C)c1", "valueObserved": 96.1}
{"compound": "CN(CCOCC(=O)N1CCC(O)(Cc2ccccc2)CC1)S(=O)(=O)c1c(Cl)cc(Cl)cc1Cl", "valueObserved": 91.1}
{"compound": "O=C(COC1CCN(S(=O)(=O)c2c(Cl)cc(Cl)cc2Cl)C1)N1CCC(O)(c2ccc(Cl)cc2)CC1 (stereo not shown)", "valueObserved": 71.9}
{"compound": "O=C(COCC1CCCN1S(=O)(=O)c1c(Cl)cccc1Cl)N1CCC(O)(c2ccc(Br)cc2)CC1 (stereo not shown)", "valueObserved": 101}

Respectfully, I request inhibition at 10 µM for each entry included below.
1. COc1cc(C)c(S(=O)(=O)N2CCCCC2CCC(=O)N2CCC(O)(c3cccnc3)CC2)c(C)c1 (stereo not shown)
2. COc1ccc(S(=O)(=O)N2CCC(OCC(=O)N3CCC(O)(c4ccccn4)CC3)C2)cc1OC (stereo not shown)
3. COc1cc(C)c(S(=O)(=O)N(CCOCC(=O)N2CCC(O)(c3cccs3)CC2)CC2CC2)c(C)c1C

OUTPUT:
101
11.9
98.8
